The measurements presented in this section are drawn from the array DNA melting data of Ke et al. (doi:10.1101/2024.01.08.574731).

assay_notes: melting temperature; fluorescence melt of hairpins on a sequencing array, two-state fit, raised by 9.35 °C to match UV melts
measurement_parameters: sodium 0.088 M
Lab note: cut-off is 40 °C. Strictly less in Tm is t. Exactly 40 °C or more is f.

record_sequence | category
GTGCTCGAAAGAGGTCAC ((((((....)))..))) | t
GTCATACCGAAAGGTGAC (((..(((....)))))) | f
GCTTCGCGAAAGCTACGC ((.(.((....)).).)) | f
GACACCCCGAAAGGGGTC (((..(((....)))))) | t
GTTAGCGAAAGCTGGAAC ((((((....)))..))) | t
GTGGGGTCGAAAGACCAC (((..(((....)))))) | f

----------
assay_notes: melting temperature; fluorescence melt of hairpins on a sequencing array, two-state fit, raised by 9.35 °C to match UV melts
measurement_parameters: sodium 0.088 M

record_sequence | Tm, °C
GTAGACCGAAAGGTGTAC (((.(((....))).))) | 50.8
GGGATAGGAAACTGTCCC ((((.((....)).)))) | 49.4
GATCTACCCTAGATC ((((((...)))))) | 40.7
GATCACGATCGTGATC ((((((....)))))) | 59.6
GATCCTGGGAGGATC ((((((...)))))) | 51
GATCAATCGGTTGATC ((((((....)))))) | 44.4

----------
Recorded folding enthalpy, one value per entry.
assay_notes: folding enthalpy; higher = less favourable; fluorescence melt of hairpins on a sequencing array, two-state fit
measurement_parameters: sodium 0.088 M

record_sequence | folding enthalpy, kcal/mol
GATCAGGCCGCTGATC ((((((....)))))) | -41.3
GATCAGAGGCCTGATC ((((((....)))))) | -34.6
GCGAAGCGAAAGCGTCGC ((((.((....)).)))) | -21.3
GGCCCTCGAAAGAGCGCC (((.(((....))).))) | -35.2
GTACTCGAAAGAGCTAC ((((((....))).))) | -16.4
GATCTAATATAGATC ((((((...)))))) | -28.6
GGTAGGGGAAACCTTACC ((((.((....)).)))) | -30.5

----------
Recorded Tm, one value per entry.
assay_notes: melting temperature; fluorescence melt of hairpins on a sequencing array, two-state fit, raised by 9.35 °C to match UV melts
measurement_parameters: sodium 0.088 M

record_sequence | measurement_units | Tm
GACTGGCGAAAGCCCGTC (((.(((....))).))) | °C | 49.1
CGCACGGAAACGTGAGCG ((((((....)))..))) | °C | 50.5
GCGTCGAAACGC ((((....)))) | °C | 51.3
GTCCTAGAAATAGGAC ((((((....)))))) | °C | 50.6

----------
assay_notes: melting temperature; fluorescence melt of hairpins on a sequencing array, two-state fit, raised by 9.35 °C to match UV melts
measurement_parameters: sodium 0.088 M
Recorded Tm, one value per entry.
quantity_kind: Tm (°C)

record_sequence | quantity_kind | measurement_units | value_reported
GCCAAGCGAAAGCTCTGC ((..(((....)))..)) | Tm | °C | 31.2
GATCATACGATGATC ((((((...)))))) | Tm | °C | 46.9
GCGACTTCTCGC ((((....)))) | Tm | °C | 47.8
GTTGTTGGAAACAATGAC ((..(((....)))..)) | Tm | °C | 38.5
GCAGGGGGAAACCCCCAC (..((((....))))..) | Tm | °C | 33.1
GTAGCAGGAAACTGCTGC (.(((((....))))).) | Tm | °C | 55.5
GCGATTTGTCGC ((((....)))) | Tm | °C | 54
GCTAAGCGAAAGCTTCGC ((.((((....)))).)) | Tm | °C | 53.8
GCTGGGCGAAAGCCGAGC (((.(((....))).))) | Tm | °C | 58.6
GATCCCACTTGGGATC ((((((....)))))) | Tm | °C | 61.1
GGTTGCGAAAGCATCACC ((((((....)))..))) | Tm | °C | 36.2
GATAGCGAAAGCTGATC ((((((....))).))) | Tm | °C | 38.9
GATCAGGACTCTGATC ((((((....)))))) | Tm | °C | 55.6
GGTCCCGAAAGGGACACC ((((((....)))..))) | Tm | °C | 54.5
GGCTTTACGAAAGTAGCC (((..(((....)))))) | Tm | °C | 45.5
GATCATGTTCATGATC ((((((....)))))) | Tm | °C | 52.5
GGCCACGAAAGTGCAGCC ((((((....)))..))) | Tm | °C | 49.9
GGCTGAGGAAACTCAACC ((.((((....)))).)) | Tm | °C | 41.2
GGGCCAGGAAACTGGTCC ((.((((....)))).)) | Tm | °C | 61.9
GACCCCGAAAGGGTCGTC ((((((....)))..))) | Tm | °C | 58.2
GGCCAGTCGAAAGACGCC (((..(((....)))))) | Tm | °C | 50.1
GCTGGAGGAAACTCCAAC (.(((((....))))).) | Tm | °C | 38
GGTCCCGCGAAAGCGACC (((..(((....)))))) | Tm | °C | 37.7
GCATAGCGAAAGCTGCGC ((..(((....)))..)) | Tm | °C | 61.3
GATCCCCAGGGGGATC ((((((....)))))) | Tm | °C | 65.5
GGCTGCGAAAGCATGCC ((((((....))).))) | Tm | °C | 66.7
GTGCGAGGAAACTTGCAC ((((.((....)).)))) | Tm | °C | 53.7
GCCGTGCGAAAGCATAGC ((..(((....)))..)) | Tm | °C | 43.3
GTCGACCGAAAGGTGAC (((.(((....)))))) | Tm | °C | 51.8
GATAGCGGAAACGCCATC (((.(((....))).))) | Tm | °C | 35.1
GATCCAGAGTGGATC ((((((...)))))) | Tm | °C | 48.8
GATCCCGAAAGGGGGATC ((((((....)))..))) | Tm | °C | 51
GAGAACCGAAAGGTGCTC (((.(((....))).))) | Tm | °C | 56.5
GGCGGCGAAAGCCTAGCC ((((((....)))..))) | Tm | °C | 60.8
GATCCCTTCCGGGATC ((((((....)))))) | Tm | °C | 59.5
GAGACACGAAAGTGACTC (((.(((....))).))) | Tm | °C | 55.6
GCCGTAGCGAAAGCTGGC (((..(((....)))))) | Tm | °C | 55.6
GATCCCTGCCGGGATC ((((((....)))))) | Tm | °C | 60
GCCTCGCGAAAGCAGGGC (((..((....))..))) | Tm | °C | 60.8
GCGGCTTCCCGC ((((....)))) | Tm | °C | 58.2
